B1: glmS ribozyme (parent)
chain: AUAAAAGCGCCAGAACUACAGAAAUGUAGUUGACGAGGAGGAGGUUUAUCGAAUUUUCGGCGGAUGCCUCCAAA

variants of: B1; experiment: self-cleavage kobs at 2500 uM GlcN6P; higher = faster cleavage; RNA array; details: with glucosamine-6-phosphate
This sample holds only a part of the variants without activity.
measurementName: self-cleavage kobs at 2500 uM GlcN6P

ACAAACGCGCCAGAACUACAGAAAUGUAGUUGACGAGGAGGAGGUUUAUCGAAUUUUCGACGGAUGCCUCCAAA [U2C A6C G60A] has a reported self-cleavage kobs at 2500 uM GlcN6P of < 1e-05 s⁻¹

Lab note: AUAAAAGCGCCAGAACUACAGAAAUGUAGUUGACGCAGAGGAGGUUUAUCGAAUUUUGGGCGGAUGCCUCCAAA [A36C G37A C58G] gave self-cleavage kobs at 2500 uM GlcN6P of < 1e-05 s⁻¹

Entry AUAAAAGCGCCAGAACUACAGAAAUGUAGGUGACGAGGAGGAGGUUUAUCGAAUUUUCGGCGGAUGCCUCCAAA [U30G] , self-cleavage kobs at 2500 uM GlcN6P reported as 0.00622 s⁻¹

Short answer for AUAAAAGUGCCAGAACUACAGAAAUGUAGUUGACGAUGAGGAGGUUUAUCGAAGUUUCGGCGGAUGCCUCCAAA [C8U G37U U54G] : self-cleavage kobs at 2500 uM GlcN6P was < 1e-05 s⁻¹

Briefly, self-cleavage kobs at 2500 uM GlcN6P measured for AUAAAAGCCCCAGAACUACAGAAAUGUAGUUGACGAGGAGGCGGUUUCUCGAAUUUUGGGCGGAUGCCUCGAAA [G9C A42C A48C C58G C71G] : < 1e-05 s⁻¹

Record summary for AUAAAAGCGCCAGAACUACAGAAAUGUAGUUGACGAGGAGGAGGUUUAUCUAAUUCCCGGCGUAUGCCUCCAAA [G51U U56C U57C G63U] : reported self-cleavage kobs at 2500 uM GlcN6P = < 1e-05 s⁻¹

Record summary for AUAAAAGCGCCAGAACUACAGAAAUGUAGUUGACGAGGAGGAGGUUUUUCGAUUUUUCGGCGGAUGCCCCCAAA [A48U A53U U69C] : reported self-cleavage kobs at 2500 uM GlcN6P = 0.000134 s⁻¹

Documented self-cleavage kobs at 2500 uM GlcN6P of AUAAAAGCGCUAGAACUACAGAAAUGUAGUUGACGAGGAGGAGGUUUAUCGAAUUUGCGGCGAAUGCCUCCAAA [C11U U57G G63A] : < 1e-05 s⁻¹

Entry under test: AUAAAAGCGCCCGAACUACAGAAAUGUAGUUGACGAGGAGGAAGUUUAUCGAAUUUUCGGUGGAUGCCUCCAAA [A12C G43A C61U] . Its self-cleavage kobs at 2500 uM GlcN6P was < 1e-05 s⁻¹

self-cleavage kobs at 2500 uM GlcN6P reported for this variant AUAAAAGCGCCAGAAAUACAGAAAUGUAGUCGACGAGGAGGAGGUUUAUCGAAUUUUCGGCGGAUGCCUACAAA [C16A U31C C70A] : < 1e-05 s⁻¹
